Target: ARG2 (Homo sapiens, UniProt P78540)
Construct: recombinant human ARG2 (E. coli)
Sequence (P78540 23-354): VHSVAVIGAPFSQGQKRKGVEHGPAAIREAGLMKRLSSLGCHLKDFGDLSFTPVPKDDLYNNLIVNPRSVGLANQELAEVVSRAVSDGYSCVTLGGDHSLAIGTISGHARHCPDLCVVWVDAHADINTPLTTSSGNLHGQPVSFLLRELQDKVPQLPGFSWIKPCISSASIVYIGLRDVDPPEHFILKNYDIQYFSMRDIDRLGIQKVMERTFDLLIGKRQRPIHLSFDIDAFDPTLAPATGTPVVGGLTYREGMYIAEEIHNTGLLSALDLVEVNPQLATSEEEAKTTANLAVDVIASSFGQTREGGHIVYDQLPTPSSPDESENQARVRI
Experiment: colorimetric urea-production arginase assay with recombinant enzyme
property_name: IC50 (µM)
Answers are plain numbers, in µM.

Given the entry NNc1ccccc1 [PHZ, phenylhydrazine] , report its measured IC50.
61

Values were extracted from paper PMC8664950.
